Attribution: PubChem BioAssay

Kindly state fluorescence slope for each of the entries shown.
- test_system: Voltage-gated potassium channel subunit beta-2 (Rattus norvegicus)
- method_summary: inhibitors of rat Kvbeta2 reductase activity – biochemical, NADPH fluorescence, primary screen (AID 622);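 further: slope of raw intensity against log time taken from 70 to 1610 s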
- run_parameters: recombinant KvBeta, 4-cyanobenzaldehyde reduction, at 10 µM, active compounds read high
Numbers only.

# example entries with known answers
{"compound": "Cc1cc(C)n(-c2nc3sc4c(c3c3nnc(SC(C)C)n23)CC(C)(C)OC4)n1", "readout_label": "fluorescence slope", "recorded_number": -0.455}
{"compound": "CCN(CC)CCNC(=O)c1ccc(CS(=O)(=O)c2ccc(Br)cc2)o1", "readout_label": "fluorescence slope", "recorded_number": -0.611}
{"compound": "CCC1CCCCN1C(=O)C1CC(c2cc(Cl)c(OC)cc2OC)=NO1 (centres undefined)", "readout_label": "fluorescence slope", "recorded_number": -0.504}
{"compound": "CCOC(=O)CSc1nnc(-c2ccccc2OC)o1", "readout_label": "fluorescence slope", "recorded_number": -0.523}
{"compound": "c1ccc(Nc2ccccc2Nc2ccccn2)nc1", "readout_label": "fluorescence slope", "recorded_number": -0.379}

Hi, could you look up fluorescence slope for each item in my list?
1. Cc1cc(C(=O)NCCCN2CCOCC2)n(-c2ccccc2)n1
2. CCOC(=O)c1[nH]c(C)c(C(=O)NCC2CCCO2)c1C (centres undefined)
3. COc1cccc(OC)c1OCCCSc1nc(C)cc(=O)[nH]1
4. COc1ccc(NC2c3ncccc3C(=O)N2Cc2ccccc2)c(OC)c1 (centres undefined)
5. CCOc1cc(-c2nc3ccccn3c2NCC2CCCO2)ccc1O (centres undefined)
6. Cc1ccc(NC(=O)c2ccccc2O)cc1
7. O=C(NCCCCNC(=O)c1cccnc1)c1cccnc1

Given back:
1: -0.519; 2: -0.608; 3: -0.422; 4: -0.609; 5: -0.091; 6: -0.602; 7: -0.64

Hi, could you look up fluorescence slope for each item in my list?
1. COCCCN(C(C)=O)c1nc(-c2ccccc2)cs1
2. Nc1c(S(=O)(=O)c2cccs2)c2nc3ccccc3nc2n1CC1CCCO1 (centres undefined)
3. C/C=C/COC(=O)c1[nH]c2c(c1C)C(=O)CC(c1ccco1)C2 (centres undefined)
4. COc1ccc(C(N)=O)cc1N
5. O=C(C1CC1)N1CCC(c2nc(-c3ccc(S(=O)(=O)NCC4CCCO4)cc3)no2)CC1 (centres undefined)

Given back:
1: -0.533; 2: -0.0861; 3: -0.496; 4: -0.45; 5: -0.491

Hi, could you look up fluorescence slope for each item in my list?
1. COC(=O)c1cccc(NC(=O)CSc2nnc(COc3ccccc3)n2C)c1
2. CCc1nc(SCC(=O)NCc2ccco2)c2c3c(sc2n1)CCCC3
3. CCc1nc(C)c(C#N)c2cc(OC)c(OC)cc12
4. CCSc1nnc(NC(=O)c2ccccn2)s1
5. CC(C)(Oc1ccc(Cl)cc1)C(=O)NC1CCSC1=O (centres undefined)
6. CCN(CC)c1ccc(NC(=O)CN2C(=O)CC(C)(C)S(=O)(=O)c3ccccc32)c(C)c1

Given back:
1: -0.436; 2: -0.466; 3: -0.446; 4: -0.583; 5: -0.502; 6: -0.465

Test item C/C=C/COC(=O)c1[nH]c2c(c1C)C(=O)CC(c1ccc(N(C)C)cc1)C2 (centres undefined) ; Voltage-gated potassium channel subunit beta-2 (Rattus norvegicus); reported fluorescence slope was -0.543
